TARGET UNDER TEST: T1, recombinant human IL1RAP protein, extracellular domain His-tagged (Sino Biological, Cat #10121-H08H) (human, UniProt Q9NPH3 21-367)
T1 construct: extracellular domain; Bought protein; The Octet analyte is printed as huIL1RAP-His (Sino Biological, lot MB08MA1301) without a catalogue number; also called huIL1RAP-His; hIL1RAP; not shown: His tag
T1 sequence (looked up): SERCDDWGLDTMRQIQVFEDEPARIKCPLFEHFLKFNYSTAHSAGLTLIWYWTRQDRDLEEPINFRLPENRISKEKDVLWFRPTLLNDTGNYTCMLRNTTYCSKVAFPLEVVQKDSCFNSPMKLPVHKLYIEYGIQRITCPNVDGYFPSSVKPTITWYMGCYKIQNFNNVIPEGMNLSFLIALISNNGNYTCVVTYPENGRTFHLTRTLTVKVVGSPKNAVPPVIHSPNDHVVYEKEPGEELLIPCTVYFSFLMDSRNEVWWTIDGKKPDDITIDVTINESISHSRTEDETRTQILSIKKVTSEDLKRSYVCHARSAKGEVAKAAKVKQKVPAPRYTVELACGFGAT
ASSAY METHOD TEXT: Octet BLI; mAb captured on anti-mouse IgG Fc sensor; huIL1RAP-His analyte
OBSERVATION TYPE: koff (s⁻¹)
Please give a number only; it is taken to be in s⁻¹.

Exam item: Quick one: koff of STLX2005 (antibody, V domains shown, Purified from hybridoma of immunized Alivamab mice; intact IgG; captured on anti-mouse IgG Fc sensors in Octet; kappa light chain; also called 74804_05B24A) VH: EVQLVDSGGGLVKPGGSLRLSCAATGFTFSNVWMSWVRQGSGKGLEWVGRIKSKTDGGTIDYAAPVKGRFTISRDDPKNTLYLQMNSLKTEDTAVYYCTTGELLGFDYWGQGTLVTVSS VL: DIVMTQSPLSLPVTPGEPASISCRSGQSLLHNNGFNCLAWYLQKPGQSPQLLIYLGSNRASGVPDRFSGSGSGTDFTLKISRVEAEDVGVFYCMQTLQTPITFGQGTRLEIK ?
Marked response: 0.000491
